# Test system: HCT116 cells
# EXPERIMENT: MTS short-term cytotoxicity assay (72 h), HCT116
# Format: cell-based, human
# EXPERIMENTAL_CONTEXT: CCD18co vs HCT116
ENDPOINT_NAME: Selective index (SI) = IC50 CCD-18co / IC50 HCT116

INSERT INTO assay_data (compound, meas_value) VALUES
  ('O=c1[nH]cc(F)c(=O)[nH]1 [5-FU, 5-fluorouracil, reference compound]', '> 42'),
  ('C[n+]1ccc(-c2c3nc(c(-c4cc[n+](C)cc4)c4ccc([nH]4)c(-c4cc[n+](C)cc4)c4ccc([nH]4)c(-c4cc[n+](C)cc4)c4nc2C=C4)C=C3)cc1 [TMPyP4, reference compound]', 3.08),
  ('CCN(CC)CCOC(=O)c1ccc2c(c1)c1c(c(=O)c3ccccc3n1CCN(CC)CC)n2CCN(CC)CC [2a]', 5.46),
  ('CCN(CC)CCOC(=O)c1ccc2c(c1)c1nc3ccccc3c(OCCN(CC)CC)c1n2CCN(CC)CC [1a]', 2.46),
  ('O=C(OCCCN1CCCCC1)c1ccc2c(c1)c1c(c(=O)c3ccccc3n1CCCN1CCCCC1)n2CCCN1CCCCC1 [2d]', 5.45);
